This collection of values is drawn from PubChem BioAssay (NCI).

System: MOLT-4 leukemia
TEST NAME: NCI tumour cell line growth inhibition, 48 h; in the data active = GI50 below about 0.43 µM; inactive = the rest
Use one of these outcomes when replying: active, inactive

Answered cases to consult:
[in] Field: outcome | Entry: C=C(C)[C@@H]1CC[C@]2(C(=O)OC)CC[C@]3(C)[C@H](CC[C@@H]4[C@@]5(C)CC/C(=N\OCCC(=NCCC#N)NOCCC#N)C(C)(C)[C@@H]5CC[C@]43C)[C@@H]12
[out] inactive

[in] Field: outcome | Entry: COc1cc(/C=C2\C(=O)Nc3ccc(O)cc32)cc(OC)c1OC
[out] inactive

[in] Field: outcome | Entry: O=C(c1ccco1)c1c(C(F)(F)F)n([O-])c2cc(Cl)c(Cl)cc2[n+]1=O
[out] active

Turning to the following molecule.
[in] Field: outcome | Entry: CNC(=S)N/N=C/CSC/C=N/NC(=S)NC
[out] inactive
